Target: GPR73 (prokineticin 1 receptor) (Homo sapiens, UniProt Q8TCW9)
Construct: expressed in transfected cells; host or cells: HEK 293
Sequence (Q8TCW9 whole entry, species assumed): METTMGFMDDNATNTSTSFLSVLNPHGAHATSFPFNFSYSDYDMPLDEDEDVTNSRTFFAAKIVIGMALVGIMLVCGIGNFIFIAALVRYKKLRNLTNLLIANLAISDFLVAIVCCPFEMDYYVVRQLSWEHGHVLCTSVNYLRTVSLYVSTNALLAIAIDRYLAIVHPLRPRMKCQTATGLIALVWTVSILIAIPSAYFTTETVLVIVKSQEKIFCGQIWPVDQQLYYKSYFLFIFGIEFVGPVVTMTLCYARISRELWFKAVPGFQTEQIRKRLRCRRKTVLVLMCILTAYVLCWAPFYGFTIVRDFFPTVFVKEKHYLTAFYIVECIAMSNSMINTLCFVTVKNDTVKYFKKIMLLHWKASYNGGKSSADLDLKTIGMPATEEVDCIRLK
Assay: PK1 functional assay: Ca2+ mobilization screening for PK1 antagonists on the FLIPR
Type: cell-based
Conditions: HEK293, 10 μM compound; HEK 293 GPR73 cells; multiple values = multiple testing; read-out: Ca^2+ Mobilization % Inh @ 10 μM
For each entry below, report its inhibition at 10 µM value.
Numbers only, in %.

>  <compound>
COc1ccc(Cn2c(NCc3cccnc3N)nc(=O)n(Cc3ccc4occc4c3)c2=O)cc1 [Cpd 134]

>  <inhibition at 10 µM [%]>
86

$$$$
>  <compound>
COc1ccc(Cn2c(=O)nc(NCc3cccnc3N)n(Cc3ccc4cc[nH]c4c3)c2=O)cc1 [Cpd 170]

>  <inhibition at 10 µM [%]>
96

$$$$
>  <compound>
Cc1cc(C)c(CNc2nc(=O)n(Cc3ccc(C#N)cc3)c(=O)n2Cc2ccc(OC(F)F)cc2)cn1 [Cpd 164]

>  <inhibition at 10 µM [%]>
64

$$$$

For every record below, what is its inhibition at 10 µM?
1. COc1ccc(Cn2c(CCc3cccnc3N)cc(=O)n(Cc3ccc(OC)cc3)c2=O)cc1 [Cpd 199]
2. COc1ccc(Cn2c(NCc3cccnc3N)nc(=O)n(Cc3ccc(I)cc3)c2=O)cc1 [Cpd 89]
3. COc1ccc(Cn2c(NCc3ncccc3C(F)(F)F)nc(=O)n(Cc3ccc(OC)cc3)c2=O)cc1 [Cpd 236]

Completion:
1. 92
2. 82
3. 64

Quick request: inhibition at 10 µM for each listed item, please.
1. COCCCCCn1c(=O)nc(NCc2cnc(C)cc2C)n(Cc2ccc(OC)cc2)c1=O [Cpd 197]
2. COc1ccc(Cn2c(NCc3cc(-c4ccccc4)cnc3N)nc(=O)n(Cc3ccc(OC)cc3)c2=O)cc1 [Cpd 57]
3. COCCCCCn1c(=O)nc(NCc2c(C)cc(C)nc2N)n(Cc2ccc(OC)cc2)c1=O [Cpd 252]
4. COc1ccc(Cn2c(=O)nc(NCc3cccnc3N)n(Cc3ccc4[nH]ccc4c3)c2=O)cc1 [Cpd 127]
5. Cc1ccc(Cn2c(=O)nc(NCc3cnc(C)cc3C)n(Cc3ccc(OC(F)F)cc3)c2=O)cc1 [Cpd 161]
6. CCOc1ccc(Cn2c(=O)nc(NCc3cccnc3N)n(Cc3ccc(OC)cc3)c2=O)cc1 [Cpd 46]
7. COc1ccc(Cn2c(NCc3cnc(C)cc3C)nc(=O)n(Cc3ccc4occc4c3)c2=O)cc1 [Cpd 133]
8. COc1ccc(Cn2c(NCc3cccnc3N)nc(=O)n(Cc3ccc(SC)cc3)c2=O)cc1 [Cpd 24]

Completion:
54
59
71
81
53
80
88
60

For every item below, please supply its inhibition at 10 µM.
1. Cc1cc(C)c(CNc2nc(=O)n(Cc3ccc4c(c3)CCO4)c(=O)n2Cc2ccc(OC(F)F)cc2)c(N)n1 [Cpd 176]
2. COc1ccc(Cn2c(=O)nc(NCc3cccnc3N)n(Cc3cccc(OC)c3)c2=O)cc1 [Cpd 80]
3. Nc1cc(Cn2c(=O)nc(NCc3cccnc3N)n(Cc3ccc(OC(F)F)cc3)c2=O)ccc1O [Cpd 268]

Completion:
1. 96
2. 70
3. 24
